All values here come from the NTF2 design screens of Basanta et al. (2020).

sequences and their reported protease stability score
# experimental_details: protease stability score; higher = more stable; yeast display proteolysis, trypsin and chymotrypsin;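 also: log10 excess protease needed over predicted unfolded state with 0 meaning unfolded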
Answer with the value's number alone.

Worked examples, 2 sequences total:
1) DRHERKKVAKDFNEALETNDHEQLMEQMDPNARIKYGDKHYHGREDLRRFWKKLVDSVDHITVDKMQVRGEEVVVLAKAESNGRNETFRLVMEFHNGRIKFVRKDTP | 0.132
2) DEEAIHRMEEFIKNVNNNNEEKLKELADPNVDAHIGDKVIHGMERIVTELVKELENIDIEYKDMRVEDRGDNIHIQIRAIFHHNGKPQEHTQIIDVQVENGKVKKMRRSSDS | 0.185

Okay, now this sequence:
May I ask what protease stability score has been recorded for DDEERAEQFFRDIVEAIRTNDEERLRHLFDENAHAQVGDKTLHGREQIVKEIVSMAQSADHVSFQLRDLSVDGETITFYFKVQYTRNGRQTSKDVIIVARQSGDKLSVKTEVDS ?
1.4
